- System: MAPKAPK2 (human) (UniProt P49137)
- Sequence (P49137 whole entry, looked up): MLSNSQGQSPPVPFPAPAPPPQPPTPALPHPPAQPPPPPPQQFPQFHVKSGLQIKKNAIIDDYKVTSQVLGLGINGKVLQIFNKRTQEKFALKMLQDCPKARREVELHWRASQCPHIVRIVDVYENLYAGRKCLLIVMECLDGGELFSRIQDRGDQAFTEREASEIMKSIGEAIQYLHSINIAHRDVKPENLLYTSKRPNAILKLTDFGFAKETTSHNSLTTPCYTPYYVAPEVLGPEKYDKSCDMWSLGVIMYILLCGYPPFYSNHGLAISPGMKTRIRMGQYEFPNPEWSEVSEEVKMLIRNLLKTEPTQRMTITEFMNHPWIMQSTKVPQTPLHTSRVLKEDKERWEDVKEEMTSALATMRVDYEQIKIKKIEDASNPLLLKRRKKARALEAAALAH
- Assay Details: radiometric filter-binding kinase assay, Kinase HotSpot
- Condition Label: compound 0.5 µM; ATP 10 µM

# Compound, Measure Unit, residual activity
rows = [
    ("CCOC(=O)c1c(C)[nH]c(/C=C2\\C(=O)Nc3ccccc32)c1C", "%", 98.6),
    ("O=C1NC(=O)C(c2cn(CCCn3ccnc3)c3ccccc23)=C1Nc1ccccc1", "%", 102),
    ("Nc1ncnc2[nH]nc(Nc3ccc(F)cc3)c12", "%", 105),
    ("CO[C@H]1CC2CC[C@@H](C)[C@@](O)(O2)C(=O)C(=O)N2CCCC[C@H]2C(=O)OC([C@H](C)C[C@@H]2CC[C@@H](O)[C@H](OC)C2)CC(=O)[C@H](C)/C=C(\\C)[C@@H](O)[C@@H](OC)C(=O)[C@H](C)C[C@H](C)/C=C/C=C/C=C/1C (stereo not given in full)", "%", 101),
    ("O=C(Nc1cccc(Nc2nccc(Nc3cccc(C(F)(F)F)c3)n2)c1)C1CC1", "%", 102),
    ("CCN(CC)CCNC(=O)c1c(C)[nH]c(/C=C2\\C(=O)Nc3ccc(F)cc32)c1C", "%", 93.2),
    ("CC[n+]1c(/C=C/N(C)c2ccccc2)n(-c2ccccc2)c2ccc(-c3nc4ccccc4s3)cc21", "%", 97.2),
    ("N#CC(C#N)=C(N)/C(C#N)=C/c1ccc(O)cc1", "%", 91.3),
    ("CNC(=O)c1cc(Oc2ccc(NC(=O)Nc3ccc(Cl)c(C(F)(F)F)c3)cc2)ccn1", "%", 100),
    ("Oc1cccc(-c2nc(N3CCOCC3)c3oc4ncccc4c3n2)c1", "%", 97.8),
    ("Nc1ncnc2c1c(-c1ccc(Oc3ccccc3)cc1)cn2C1CCCC1", "%", 107),
    ("c1ccc(-c2n[nH]cc2-c2ccnc3ccccc23)nc1", "%", 100),
    ("CC(=O)c1ccc(N2CCOCC2)cc1O", "%", 103),
    ("c1ccc(-c2n[nH]c3c2oc2ccccc23)cc1", "%", 99.1),
    ("O=C1NC(=O)/C(=C/c2ccc3c(c2)OC(F)(F)O3)S1", "%", 94.4),
]

----------
- System: RPS6KA1 KD1 KD2 (human) (UniProt Q15418)
- Sequence (Q15418 whole entry, looked up): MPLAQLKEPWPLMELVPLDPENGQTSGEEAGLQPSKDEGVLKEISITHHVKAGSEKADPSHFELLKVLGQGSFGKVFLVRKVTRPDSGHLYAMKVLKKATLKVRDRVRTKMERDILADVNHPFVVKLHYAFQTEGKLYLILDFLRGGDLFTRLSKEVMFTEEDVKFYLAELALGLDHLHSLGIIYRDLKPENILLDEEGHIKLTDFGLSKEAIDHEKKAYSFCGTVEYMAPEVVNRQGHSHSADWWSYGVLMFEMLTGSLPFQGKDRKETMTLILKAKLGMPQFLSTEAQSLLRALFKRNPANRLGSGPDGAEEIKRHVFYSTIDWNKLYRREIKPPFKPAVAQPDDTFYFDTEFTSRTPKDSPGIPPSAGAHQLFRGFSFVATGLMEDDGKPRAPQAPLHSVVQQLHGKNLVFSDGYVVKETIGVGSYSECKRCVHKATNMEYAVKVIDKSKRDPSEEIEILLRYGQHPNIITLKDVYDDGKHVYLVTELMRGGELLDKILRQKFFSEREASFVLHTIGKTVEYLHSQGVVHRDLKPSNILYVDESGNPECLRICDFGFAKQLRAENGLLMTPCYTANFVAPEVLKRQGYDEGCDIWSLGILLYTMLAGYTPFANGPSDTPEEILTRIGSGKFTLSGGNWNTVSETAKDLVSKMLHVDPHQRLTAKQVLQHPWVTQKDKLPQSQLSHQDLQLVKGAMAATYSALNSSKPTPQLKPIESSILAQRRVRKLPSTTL
- Assay Details: radiometric filter-binding kinase assay, Kinase HotSpot
- Condition Label: compound 0.5 µM; ATP 10 µM
This section presents compounds with their documented residual activity values.

# Smi, residual activity (%)
rows = [
    ("N#C/C(=C(/N)Sc1ccc(N)cc1)c1ccccc1C(F)(F)F", 88.7),
    ("c1ccc(-c2n[nH]cc2-c2ccnc3ccccc23)nc1", 88.1),
    ("CCC(=O)Nc1ccc2ncnc(Nc3cccc(Br)c3)c2c1", 88.7),
    ("CCCC(=O)Oc1ccc2[nH]c(C(=O)c3cc4ccccc4[nH]3)cc2c1", 91.3),
]

----------
- System: CDK5 CDK5R1 p25 (human) (UniProt Q00535+Q15078)
- Sequence (Q00535 whole entry, looked up): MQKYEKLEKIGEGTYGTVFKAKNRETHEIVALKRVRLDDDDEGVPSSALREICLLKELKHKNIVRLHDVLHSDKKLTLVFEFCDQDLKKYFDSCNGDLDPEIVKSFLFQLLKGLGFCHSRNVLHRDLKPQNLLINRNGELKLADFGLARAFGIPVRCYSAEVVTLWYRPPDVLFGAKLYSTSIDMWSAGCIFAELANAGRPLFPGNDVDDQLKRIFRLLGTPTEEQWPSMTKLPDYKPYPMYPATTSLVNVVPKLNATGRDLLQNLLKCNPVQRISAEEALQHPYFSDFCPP
- Sequence (Q15078 whole entry, looked up): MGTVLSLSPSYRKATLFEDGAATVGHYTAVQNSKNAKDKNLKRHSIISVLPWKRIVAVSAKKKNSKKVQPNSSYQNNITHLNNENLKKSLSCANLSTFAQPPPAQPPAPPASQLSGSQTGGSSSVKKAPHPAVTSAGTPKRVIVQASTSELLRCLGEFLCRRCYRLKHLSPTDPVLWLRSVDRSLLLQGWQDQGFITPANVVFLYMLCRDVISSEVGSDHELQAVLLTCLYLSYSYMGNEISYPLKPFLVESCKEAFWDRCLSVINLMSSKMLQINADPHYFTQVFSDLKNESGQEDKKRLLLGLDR
- Assay Details: radiometric filter-binding kinase assay, Kinase HotSpot
- Condition Label: compound 0.5 µM; ATP 10 µM
This section presents compounds with their documented residual activity values.
Result Type: residual activity (%)

# Smi, System, Endpoint Result
measured = [
    ("CCCC(=O)Oc1ccc2[nH]c(C(=O)c3cc4ccccc4[nH]3)cc2c1", "CDK5 CDK5R1 p25 (human) (UniProt Q00535+Q15078)", 90.1),
    ("COC[C@H]1OC(=O)c2coc3c2[C@@]1(C)C1=C(C3=O)[C@@H]2CCC(=O)[C@@]2(C)C[C@H]1OC(C)=O", "CDK5 CDK5R1 p25 (human) (UniProt Q00535+Q15078)", 87.6),
    ("O=C1NC(=O)/C(=C/c2ccc3c(c2)OC(F)(F)O3)S1", "CDK5 CDK5R1 p25 (human) (UniProt Q00535+Q15078)", 89.7),
]

----------
This section presents compounds with their documented residual activity values.
- System: WNK2 (human)
- Assay Details: radiometric filter-binding kinase assay, Kinase HotSpot
- Condition Label: compound 0.5 µM; ATP 10 µM

# Smi, residual activity
rows = [
    ("CC#CC(=O)Nc1cc2c(Nc3ccc(F)c(Cl)c3)ncnc2cn1", "107%"),
    ("COc1ccc2c(c[n+](C)c3c4cc5c(cc4ccc23)OCO5)c1OC", "98.5%"),
    ("CCC(=O)Nc1ccc2ncnc(Nc3cccc(Br)c3)c2c1", "107%"),
    ("O=C1NC(=O)/C(=C/c2ccc3c(c2)OC(F)(F)O3)S1", "113%"),
    ("N#C/C(=C(/N)Sc1ccc(N)cc1)c1ccccc1C(F)(F)F", "109%"),
    ("CC(C)N(CCC(=O)c1ccc2ccccc2c1)Cc1ccccc1", "107%"),
    ("Cc1[nH]c(/C=C2\\C(=O)Nc3ccc(S(=O)(=O)N(C)c4cccc(Cl)c4)cc32)c(C)c1C(=O)N1CCN(C)CC1", "112%"),
    ("O=C1Nc2ccc(Cl)cc2/C1=C/c1cc(Cl)c(O)c(Cl)c1", "115%"),
    ("c1ccc(-c2n[nH]c3c2oc2ccccc23)cc1", "102%"),
    ("CCN(CC)C(=O)c1ccc(Nc2nc(OCC3CCCCC3)c3nc[nH]c3n2)cc1", "88.6%"),
    ("O=S(=O)(c1cccc2cnccc12)N1CCCNCC1", "99.3%"),
    ("COc1ccc(COc2ccc(Cc3cnc(N)nc3N)cc2OC)cc1", "94.6%"),
    ("Nc1ncnc2[nH]nc(Nc3ccc(F)cc3)c12", "110%"),
    ("Nc1ncnc2c1c(-c1ccc(Oc3ccccc3)cc1)cn2C1CCCC1", "102%"),
    ("CC[n+]1c(/C=C/N(C)c2ccccc2)n(-c2ccccc2)c2ccc(-c3nc4ccccc4s3)cc21", "112%"),
    ("CC(=O)c1ccc(N2CCOCC2)cc1O", "101%"),
]

----------
- System: AURKC (human)
- Assay Details: radiometric filter-binding kinase assay, Kinase HotSpot
- Condition Label: compound 0.5 µM; ATP 10 µM
This section presents molecules with their documented residual activity values.
Result Type: residual activity (%)

# Smi, Endpoint Result
records = [
    ("O=C1Nc2ccc(Cl)cc2/C1=C/c1cc(Cl)c(O)c(Cl)c1", 78.6),
    ("CNC(=O)c1cc(Oc2ccc(NC(=O)Nc3ccc(Cl)c(C(F)(F)F)c3)cc2)ccn1", 106),
    ("c1ccc(-c2n[nH]c3c2oc2ccccc23)cc1", 96.7),
    ("Nc1cccc(-c2cc3c(Oc4cccc(O)c4)ncnc3[nH]2)c1", 77.7),
    ("O=C1NC(=O)c2c1c1c3ccccc3n3c1c1c2c2ccccc2n1C1CCC3O1", 36.5),
]

----------
This section presents compounds with their documented residual activity values.
- System: INSR (human)
- Assay Details: radiometric filter-binding kinase assay, Kinase HotSpot
- Condition Label: compound 0.5 µM; ATP 10 µM

# Smi, residual activity (%)
data = [
    ("CC(C)N(CCC(=O)c1ccc2ccccc2c1)Cc1ccccc1", 107),
    ("O=C1Nc2ccc(Cl)cc2/C1=C/c1cc(Cl)c(O)c(Cl)c1", 99.2),
    ("CC#CC(=O)Nc1cc2c(Nc3ccc(F)c(Cl)c3)ncnc2cn1", 99.6),
    ("O=C(Nc1cccc(Nc2nccc(Nc3cccc(C(F)(F)F)c3)n2)c1)C1CC1", 89.8),
    ("CCN(CC)CCNC(=O)c1c(C)[nH]c(/C=C2\\C(=O)Nc3ccc(Cl)cc32)c1C", 30.1),
    ("O=c1cc(N2CCOCC2)oc2c1ccc1ccccc12", 92.3),
    ("CCC(=O)Nc1ccc2ncnc(Nc3cccc(Br)c3)c2c1", 101),
    ("CCCC(=O)Oc1ccc2[nH]c(C(=O)c3cc4ccccc4[nH]3)cc2c1", 101),
    ("Nc1ccc2ncnc(NCCc3ccc(Oc4ccccc4)cc3)c2c1", 103),
    ("Cc1ccc(S(=O)(=O)/C=C/C#N)cc1", 108),
    ("COc1ccc(COc2ccc(Cc3cnc(N)nc3N)cc2OC)cc1", 97),
    ("COc1ccc2c(c[n+](C)c3c4cc5c(cc4ccc23)OCO5)c1OC", 94.9),
    ("COc1cc2ncnc(Nc3cccc(Cl)c3)c2cc1OC", 77.6),
    ("CNC(=O)c1cc(Oc2ccc(NC(=O)Nc3ccc(Cl)c(C(F)(F)F)c3)cc2)ccn1", 106),
    ("O=C1NC(=O)/C(=C/c2ccc3c(c2)OC(F)(F)O3)S1", 106),
    ("N#C/C(=C(/N)Sc1ccc(N)cc1)c1ccccc1C(F)(F)F", 101),
    ("Cc1[nH]c(/C=C2\\C(=O)Nc3ccc(S(=O)(=O)N(C)c4cccc(Cl)c4)cc32)c(C)c1C(=O)N1CCN(C)CC1", 98.8),
    ("CCOC(=O)c1c(C)[nH]c(/C=C2\\C(=O)Nc3ccccc32)c1C", 90.6),
    ("CCN(CC)C(=O)c1ccc(Nc2nc(OCC3CCCCC3)c3nc[nH]c3n2)cc1", 92.8),
    ("Nc1ncnc2c1c(-c1ccc(Oc3ccccc3)cc1)cn2C1CCCC1", 103),
    ("Nc1cccc(-c2cc3c(Oc4cccc(O)c4)ncnc3[nH]2)c1", 93.7),
]

From: the kinase profiling compilation of Christmann-Franck et al. (2016)
